protocol-summary: Inhibition of Metallo-beta-lactamase IMP-1 (unknown origin)
Parameters: species or system Bacteria
pIC50: −log10 of the molar value.
Quick rule: pIC50 of at least 8 means yes (1), below that means no (0).

Use these answered entries as a reference point.
NS(=O)(=O)c1c(CC2CCNCC2)ccc(-c2ccc(C3CCNCC3)cc2)c1-c1nn[nH]n1 :: no (0)
NS(=O)(=O)c1cccc(-c2ccc(C3CCNCC3)cc2)c1-c1nn[nH]n1 :: no (0)
NS(=O)(=O)c1c(SC2CCNCC2)ccc(-c2ccc(C3CCNCC3)cc2)c1-c1nnn[nH]1 :: no (0)

Could you tell me if the measured pIC50 of NS(=O)(=O)c1c(C(F)(F)F)ccc(-c2ccc(C3CCNCC3)cc2)c1-c1nn[nH]n1 reaches 8 or more?
yes (1)

Could you tell me if the measured pIC50 of NS(=O)(=O)c1c(S(=O)(=O)C2CCNCC2)ccc(-c2ccc(C3CCNCC3)cc2)c1-c1nnn[nH]1 reaches 8 or more?
yes (1)
